- System: 855422-203-R-J1-PDC complex spheroid viability
- assayName: Anticancer human tumor 855422-203-R-J1-PDC patient-derived bladder carcinoma cell line growth inhibition [POLQ]; active = viability on the fitted dose curve at most 10% of control; inactive = the rest
- conditionSet: second compound 3.16 µM; first compound 0.316 µM
Classes used: active, inactive

compound	labelValue
CCc1cc2c(N3CCc4c(cc(Cn5ccnc5)cc4-c4cn(C)nc4C(F)(F)F)C3=O)ccnc2c(OC)n1 + Cc1cccc(N(C)C(=O)C2C(O)CCN2c2nc(C)cc(C(F)(F)F)c2C#N)c1	inactive
COc1cccc(OCCCN)c1-c1cc(Nc2cnc(C#N)cn2)n[nH]1 + Cc1cccc(N(C)C(=O)C2C(O)CCN2c2nc(C)cc(C(F)(F)F)c2C#N)c1	active
O=C(Nc1ccc(O)c(NS(=O)(=O)c2ccc(F)cc2)c1)c1ccc(-c2ccccc2)cc1 + COC1C(OC(N)=O)C(O)C(Oc2ccc3c(O)c(NC(=O)c4ccc(O)c(CC=C(C)C)c4)c(=O)oc3c2C)OC1(C)C	inactive
C=CCn1c(=O)c2cnc(Nc3ccc(N4CCN(C)CC4)cc3)nc2n1-c1cccc(C(C)(C)O)n1 + COC1C(OC(N)=O)C(O)C(Oc2ccc3c(O)c(NC(=O)c4ccc(O)c(CC=C(C)C)c4)c(=O)oc3c2C)OC1(C)C	inactive
O=C(Nc1ccc(O)c(NS(=O)(=O)c2ccc(F)cc2)c1)c1ccc(-c2ccccc2)cc1 + Cc1cccc(N(C)C(=O)C2C(O)CCN2c2nc(C)cc(C(F)(F)F)c2C#N)c1	inactive

---

Measured viability, T/C, listed per entry for reference.
- System: 855422-203-R-J1-PDC complex spheroid viability
- assayName: Anticancer human tumor 855422-203-R-J1-PDC cell line growth inhibition [POLQ];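 note: spheroids exposed to compounds for seven days before readout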
- conditionSet: second compound 0.1 µM; first compound 3.16 µM; active compounds read low
- Procedure: Multicellular complex tumor spheroid response to Polymerase (POL) inhibitors (novobiocin, ART-558, RP6685) in combination with a variety of drugs and investigational agents in selected tumor cell lines The POL inhibitors (novobiocin, ART-558, and RP6685) were evaluated both individually and in combination with standard of care and investigational anticancer small molecules within a complex spheroid model of solid tumors. . […]
quantity: viability, T/C (%)

compound	reportedMeasurement
C=CC(=O)N1CCN(c2nc(=O)n(-c3c(C)ccnc3C(C)C)c3nc(-c4c(O)cccc4F)c(F)cc23)C(C)C1 (stereo not given) + COC1C(OC(N)=O)C(O)C(Oc2ccc3c(O)c(NC(=O)c4ccc(O)c(CC=C(C)C)c4)c(=O)oc3c2C)OC1(C)C	123
Nc1ccn(C2OC(CO)C(O)C2(F)F)c(=O)n1 (stereo not given) + Cc1cccc(N(C)C(=O)C2C(O)CCN2c2nc(C)cc(C(F)(F)F)c2C#N)c1	8.34
CCCS(=O)(=O)Nc1ccc(F)c(C(=O)c2c[nH]c3ncc(-c4ccc(Cl)cc4)cc23)c1F + COC1C(OC(N)=O)C(O)C(Oc2ccc3c(O)c(NC(=O)c4ccc(O)c(CC=C(C)C)c4)c(=O)oc3c2C)OC1(C)C	106
C#Cc1c(F)ccc2cc(O)cc(-c3ncc4c(N5CC6CCC(C5)N6)nc(OCC56CCCN5CC(F)C6)nc4c3F)c12 (stereo not given) + Cc1cccc(N(C)C(=O)C2C(O)CCN2c2nc(C)cc(C(F)(F)F)c2C#N)c1	103
O=c1[nH]cc(F)c(=O)[nH]1 + COC1C(OC(N)=O)C(O)C(Oc2ccc3c(O)c(NC(=O)c4ccc(O)c(CC=C(C)C)c4)c(=O)oc3c2C)OC1(C)C	28
